Values compiled from patent US10174008B2.

property label: melting point

# count of solved cases: 4
Fill blank: measured melting point of the molecule Cc1ccc(S(=O)(=O)n2c([C@@H]3CC3c3ccccc3)c(C)c3ccccc32)cc1 (stereo in doubt) is ____.
156 to 157 °C

Consider the molecule shown here: COc1ccc(C2C=CCCc3c2c2ccccc2n3S(=O)(=O)c2ccc(C)cc2)cc1 (centres unmarked) What is its recorded melting point?
75 to 76 °C

Dear colleague, I am looking for the recorded melting point of the following molecule: COc1ccc(C2C[C@@H]2c2c(C)c3ccccc3n2S(=O)(=O)c2ccc(C)cc2)cc1 (stereo in doubt)
155 to 156 °C

Consider the molecule shown here: Cc1ccc(S(=O)(=O)n2c([C@H]3C[C@H]3c3ccc4c(c3)OCO4)c(C)c3ccccc32)cc1 What is its recorded melting point?
106 to 107 °C

Moving on to another molecule below.
// melting point lookup, key: Cc1ccc(S(=O)(=O)n2c(C3C[C@]3(CO)c3ccccc3)c(C)c3ccccc32)cc1 (stereo in doubt)
57 to 58 °C
